Quick reference: CC50 of the listed items.
protocol: Cytotoxicity, CellTiter-Glo cell viability assay in HFF cells
measurementContext: human, human foreskin fibroblast (HFF) cell monolayers, CC50, HFF cells, run with AdV5 assay; average and SD from five independent experiments

1. Nc1nc2c(ncn2/C=C2/CC2(CO)CO)c(=O)[nH]1 | 95 µM
2. Nc1ccn(C[C@@H](CO)OCP(=O)(O)O)c(=O)n1 [CDV, cidofovir, reference compound] | 97 µM
3. Nc1nc2c(ncn2COCCO)c(=O)[nH]1 | > 100 µM
4. Nc1nc2c(ncn2CCC(CO)CO)c(=O)[nH]1 | > 100 µM

Lab note: next compound to report on.
For the compound O=C(O)P(=O)(O)O , report CC50. > 1000 µM
